src = ChEMBL document CHEMBL1201862

Record form. Attribute: GI50. Fill in for each entry.
# System: MCF7
# procedureDetails: NCI tumour cell line growth inhibition, 48 h
Calls of active or inactive are those of the source. No stated cut-off is given here; in the data, active = GI50 up to about 1.1 µM and inactive = higher.

Check out these entries, answers already filled in.
>  <compound>
O=C1N(c2ccccc2)N=C2c3ccncc3C3=NN(c4ccccc4)C(=O)C123 (stereo unspecified)

>  <GI50>
> 35.6 µM (inactive)

$$$$
>  <compound>
c1ccc(C(Oc2noc3ccccc23)c2ccccc2)cc1

>  <GI50>
37.3 µM (inactive)

$$$$
>  <compound>
CN1CC2=C(N=C(S)NC2c2ccccc2)/C(=C/c2ccccc2)C1 (stereo unspecified)

>  <GI50>
40.4 µM (inactive)

$$$$
>  <compound>
CCOC(=O)c1nc2ccc(C(F)(F)F)cc2nc1NCc1ccc(OC)c(OC)c1

>  <GI50>
37.7 µM (inactive)

$$$$
>  <compound>
COc1ccc(/C(C)=N/NC(=O)c2ccncc2)cc1OC

>  <GI50>
> 10 µM (inactive)

$$$$

// next entry
# input Return GI50 measured with MCF7 given this compound: Cc1ccc(S(=O)(=O)N/C(=N\O)Nc2ccc(Cl)c(Cl)c2)cc1
# output 17.5 µM (inactive)

----------
Record form. Attribute: GI50. Fill in for each entry.
# System: A549
# procedureDetails: NCI tumour cell line growth inhibition, 48 h
Active and inactive are the calls of the source. No stated cut-off is given here; in the data, active = GI50 up to about 1.1 µM and inactive = higher. *1 amine or outer side, *2 acyl side, *3 side chain or, on linkers, in order; H or OH if unused. Where a SMILES comes first, the peptide text is derived from it. Bridges are numbered along the chain shown (N, C = ends). [ ]: non-standard residue; d: D form. The star is where a group is joined. ξ: configuration not given here. ξOrn(4,5-diOH) = O=C(C(CC(O)C(O)N[*:3])N[*:1])[*:2]; ξhTyr(βξ-OH,γξ-OH) = NC(C(=O)O)C(O)C(O)c1ccc(O)cc1; ξPro(3ξ-OH,4ξ-Me) = CC1CNC(C(=O)O)C1O; X55 = CCCCC/C=C/C/C=C\CCCCCCCC(=O)*; Hyp = O=C(O)[CH]1C[CH](O)CN1

>  <molecule>
CCCCC/C=C/C/C=C\CCCCCCCC(=O)NC1CC(O)C(O)NC(=O)C2C(O)C(C)CN2C(=O)C(C(C)O)NC(=O)C(C(O)C(O)c2ccc(O)cc2)NC(=O)C2CC(O)CN2C(=O)C(C(C)O)NC1=O (stereo not drawn) (X55-[ξOrn(4,5-diOH)]T[Hyp][ξhTyr(βξ-OH,γξ-OH)]T[ξPro(3ξ-OH,4ξ-Me)]; lactam 1-C; configuration not given here)

>  <systemTested>
A549

>  <GI50>
> 100 µM (inactive)

$$$$

Provide GI50 for all items below, preserving their order.
1. CCCCCC/C=C1\CCC(CN2CCCC2)C1=O (centres undefined)
2. CC(C)Oc1c(N(Cc2ccccc2)c2ccccc2C2SCCCS2)c(=O)c1=O
3. NC(=O)CNC(=O)[C@@H]1C[C@@H](OCCC(=O)O)CN1C(=O)OCc1ccccc1
4. O=c1c(NCc2ccccc2)c(C2(c3ccccc3F)SCCCS2)c1=O
5. O=c1[nH]c2ccc(CC(=S)N3CCN(c4ccccc4)CC3)cc2o1
6. COc1ccc2c(c1)-c1c(c3cc(OC)ccc3n1CCN1CCOCC1)CC2

# output
["20.5 µM (inactive)", "5.36 µM (inactive)", "> 100 µM (inactive)", "> 100 µM (inactive)", "85.3 µM (inactive)", "23.9 µM (inactive)"]

Provide GI50 for all items below, preserving their order.
1. Cc1ccc2c(/C=C/c3ccc(N(C)C)cc3)ccc(C(C)C)cc1-2
2. COC1=C[C@]2(CCC(=O)O2)[C@@H]2Cc3ccccc3[C@H](O)[C@@H]2C1=O
3. O=c1oc2ccc3ccccc3c2cc1-c1nc2ccc([N+](=O)[O-])cc2o1
4. COc1cc(/C=C2\CCC(CN(C)C)C2=O)ccc1OC(=O)c1ccccc1 (centres undefined)

# output
1. > 100 µM (inactive)
2. > 100 µM (inactive)
3. 14.7 µM (inactive)
4. 23.6 µM (inactive)

Provide GI50 for all items below, preserving their order.
1. COC(=O)c1c/c(=N\NC(=O)CC(=O)Nc2ccccc2Cl)c2ccccc2o1
2. COc1ccc(N2C(=O)C(=O)C3(CCCCC3)C2=O)c(OC)c1OC
3. O/N=C\c1c2c(cc3c1CCC3)CCC2
4. Cc1cn(C(C)OCCN2C(=O)c3ccccc3C2=O)c(=O)[nH]c1=O (centres undefined)
5. O=c1cc(NNc2cccc(F)c2)[nH]c(=S)[nH]1
6. c1cc2cc(Cc3ccc4[nH]ccc4c3)ccc2[nH]1

# output
1: > 100 µM (inactive); 2: > 100 µM (inactive); 3: > 100 µM (inactive); 4: > 100 µM (inactive); 5: > 100 µM (inactive); 6: 16.2 µM (inactive)

Provide GI50 for all items below, preserving their order.
1. N/N=C1/C(=N/O)CCc2nonc21
2. CC(=O)OC1C[C@@H](C)C2(CC(c3ccoc3)OC2=O)C2CCC(O)C3(CO3)C12CO (some centres undefined)

# output
["> 100 µM (inactive)", "> 100 µM (inactive)"]

----------
# Test system: DU-145
# procedureDetails: NCI tumour cell line growth inhibition, 48 h
Activity calls are given as the source filed them. Rule as the data show it: active = GI50 up to about 1.1 µM and inactive = higher.
Record form. Attribute: GI50. Fill in for each entry.

Check out these entries, answers already filled in.
>  <compound>
C[C@]12CC[C@H]3[C@@H](CC=C4C[C@@H](N5CCCC5)CC[C@@]43C)[C@@H]1C[C@H](N1CCOCC1)[C@@H]2O

>  <readout>
GI50

>  <testValue>
> 100 µM (inactive)

$$$$
>  <compound>
CSc1ccccc1NC1=NCCO1

>  <readout>
GI50

>  <testValue>
> 100 µM (inactive)

$$$$
>  <compound>
OCC1OC(n2cnc3cccnc32)CC1O (stereo not drawn)

>  <readout>
GI50

>  <testValue>
> 100 µM (inactive)

$$$$
>  <compound>
c1cc2c(cc1NC1=NCCO1)OCO2

>  <readout>
GI50

>  <testValue>
> 100 µM (inactive)

$$$$
>  <compound>
CCN(CC)c1ccc2cc(-c3nc(O)c4ccccc4n3)c(=N)oc2c1

>  <readout>
GI50

>  <testValue>
> 100 µM (inactive)

$$$$
>  <compound>
N#Cc1nnc2c3c(-c4ccc(Cl)cc4)c(C#N)c(O)nc3nn2c1N

>  <readout>
GI50

>  <testValue>
3.88 µM (inactive)

$$$$
>  <compound>
Cc1c(Cl)nc(Nc2nc3ccccc3[nH]2)nc1Cl

>  <readout>
GI50

>  <testValue>
39.4 µM (inactive)

$$$$
>  <compound>
C/C(C=O)=N\Nc1cc(C)c2ccccc2n1

>  <readout>
GI50

>  <testValue>
15.5 µM (inactive)

$$$$

Provide GI50 for all items below, preserving their order.
1. CCC(CON(C)c1ccccc1)(SC)SC
2. COc1ccc(NC(C)c2ccncc2)cc1 (stereo not drawn)
3. CCOP(=O)(CC(=O)C1CC1)OCC
4. CC(C)(Cc1ccccc1)Cc1cc(O)ccc1O
5. OCC1CCCCCCCCCCC12SCCCS2 (stereo not drawn)
6. N#C[BH2-][n+]1ccc(C(=O)NNCC(F)(F)F)cc1

# output
["82.6 µM (inactive)", "> 100 µM (inactive)", "> 100 µM (inactive)", "23.1 µM (inactive)", "> 100 µM (inactive)", "> 100 µM (inactive)"]

----------
# Test system: TK-10
# procedureDetails: NCI tumour cell line growth inhibition, 48 h
Active and inactive are the calls of the source. No stated cut-off is given here; in the data, active = GI50 up to about 1.1 µM and inactive = higher.
readout: GI50

>  <compoundStructureString>
CC(=O)OCCCOCn1c(Cc2ccccc2)c(C)c(=O)[nH]c1=O

>  <testValue>
> 100 µM (inactive)

$$$$

Provide GI50 for all items below, preserving their order.
1. Cn1c(N=[N+]=[N-])cc(=O)n(C)c1=O
2. COC(=O)/C=C1/OC(c2ccccc2)=C(C)C1=O
3. CN1C[C@H]2[C@@H](C1=O)[C@H](c1ccc([N+](=O)[O-])cc1)ON2C

# output
1: > 100 µM (inactive); 2: 15.7 µM (inactive); 3: > 100 µM (inactive)

Provide GI50 for all items below, preserving their order.
1. CN1C2=Nc3n(C)c4ccccc4[n+]3CN2c2ccccc21
2. Cc1ccc(S(=O)(=O)N/N=C2/CCCOC2)cc1

# output
["> 100 µM (inactive)", "> 100 µM (inactive)"]

----------
# Tested on: SK-MEL-28
# procedureDetails: NCI tumour cell line growth inhibition, 48 h
Active and inactive are the calls of the source. No stated cut-off is given here; in the data, active = GI50 up to about 1.1 µM and inactive = higher.
Entry note: the call must match one of active, inactive

Please review the following examples before continuing.
>  <compound>
Cc1ccc(NC(=O)CCc2nc(N)nc(N)c2-c2ccccc2)cc1C

>  <class>
inactive

$$$$
>  <compound>
O=C(Nn1cc(F)c(=O)[nH]c1=O)C12CC3CC(CC(C3)C1)C2

>  <class>
inactive

$$$$
>  <compound>
COC(=O)C(Cc1ccc2c(c1)CCCC2)Cc1cc2c(cc1C(O)OC)CCC2 (stereo unspecified)

>  <class>
inactive

$$$$
>  <compound>
CC(C)(C)OC(=O)NC(Cc1ccc(OCc2ccccc2)cn1)C(=O)N1CCCC1 (stereo unspecified)

>  <class>
inactive

$$$$
>  <compound>
O=C(Nc1ccc(Cl)cc1)C(=O)C(C(=O)c1ccccc1-c1ccccc1)C1OC(=O)c2ccccc21 (stereo unspecified)

>  <class>
inactive

$$$$

# input Tell me the recorded outcome of this test for CCOC(=O)C1=C(OS(=O)(=O)C(F)(F)F)CCCC1 .
# output inactive

# input Tell me the recorded outcome of this test for COC(=O)C1=C(C[S+]([O-])c2ccc([N+](=O)[O-])cc2[N+](=O)[O-])ON(C)C1c1ccccc1 (stereo unspecified) .
# output inactive

# input Tell me the recorded outcome of this test for CC(C)(Cc1ccccc1)Cc1cc(O)ccc1O .
# output inactive

# input Tell me the recorded outcome of this test for COC1=C(C)C(=O)c2c(c(COC(N)=O)c3n2CC2C3N2C)C1=O (stereo unspecified) .
# output active

# input Tell me the recorded outcome of this test for Cc1cn2c(/C=C3/C(=O)Nc4ccccc43)c(-c3ccccc3)nc2s1 .
# output inactive

# input Tell me the recorded outcome of this test for Nc1ccc2c(=S)c3ccccc3[nH]c2c1 .
# output inactive

# input Tell me the recorded outcome of this test for NCC(Cc1ccccc1)P(=O)(O)O (stereo unspecified) .
# output inactive

# input Tell me the recorded outcome of this test for C[C@]12C=CC(=O)C=C1[C@@H](F)C[C@H]1[C@@H]3CC[C@](O)(C(=O)CO)[C@@]3(C)C[C@H](O)[C@@]12F .
# output inactive

# input Tell me the recorded outcome of this test for O=c1c(NCc2ccccc2)c(C2(c3ccccc3F)SCCCS2)c1=O .
# output inactive
